Test system: HT-29
protocol.description: Induction of cell cycle arrest in human HT-29 cells assessed as accumulation at G0/G1 phase by propidium iodide staining based flow cytometry (reference value: 46.1 +/- 0.4%)
Format: functional
measured.quantity: Activity (%)

{"columns": ["mol.smiles", "subject.of.test", "recorded.measurement"],
 "data": [
  ["COc1ccc(/C=C2\\S/C(=N\\c3csc(-c4ccc(Cl)cc4)c3)NC2=O)cc1", "HT-29", 1.2],
  ["Cc1ccc(/C=C2\\S/C(=N\\c3csc(-c4ccc(Cl)cc4)c3)NC2=O)cc1", "HT-29", 1.2],
  ["COc1ccc(/C=C2\\S/C(=N\\c3csc(-c4ccc(Cl)cc4)c3)NC2=O)cc1OC", "HT-29", 2.3],
  ["CN(C)c1ccc(/C=C2\\S/C(=N\\c3csc(-c4ccc(Cl)cc4)c3)NC2=O)cc1", "HT-29", 1.5]
]}

###

protocol.description: Cytotoxicity against human HCT116 cells after 72 hrs by MTT assay
Type: functional, cell-based
cond: HCT-116, 72 h
pIC50: −log10 of the molar value.
measured.quantity: pIC50

{"columns": ["mol.smiles", "op", "recorded.measurement"],
 "data": [
  ["Cc1ccc(/C=C2\\S/C(=N\\c3csc(-c4ccc(Cl)cc4)c3)NC2=O)cc1", "=", 6.00],
  ["O=C1N/C(=N/c2nc(-c3ccc(Cl)cc3)cs2)S/C1=C\\c1ccc(F)cc1", "=", 5.12],
  ["O=C1N/C(=N/c2csc(-c3ccc(Cl)cc3)c2)S/C1=C\\c1ccccn1", "=", 4.67],
  ["COc1ccc(/C=C2\\S/C(=N\\c3csc(-c4ccc(Cl)cc4)c3)NC2=O)cc1", "=", 5.89],
  ["O=C1N/C(=N/c2csc(-c3ccc(Cl)cc3)c2)S/C1=C\\c1ccc(F)cc1", "=", 5.13],
  ["CN(C)c1ccc(/C=C2\\S/C(=N\\c3nc(-c4ccc(Cl)cc4)cs3)NC2=O)cc1", "=", 6.70],
  ["O=C1CS/C(=N\\c2nc(-c3ccc(Cl)cc3)cs2)N1", "=", 4.62],
  ["O=C1CS/C(=N\\c2csc(-c3ccccc3)c2)N1", "<", 4.30],
  ["COc1ccc(-c2cc(/N=C3/NC(=O)CS3)cs2)cc1", "<", 4.30],
  ["COc1ccc(-c2cc(/N=C3\\SCC(=O)N3c3cccc(OC)c3)cs2)cc1", "=", 5.57],
  ["O=C1N/C(=N/c2csc(-c3ccc(Cl)cc3)c2)S/C1=C\\c1ccc(Br)cc1", "=", 5.48],
  ["O=C1N/C(=N/c2csc(-c3ccc(Cl)cc3)c2)S/C1=C\\c1ccccc1", "=", 4.95],
  ["CC(C)(C)c1cc(/N=C2/NC(=O)CS2)cs1", "<", 4.30],
  ["O=C1CS/C(=N\\c2csc(-c3cccc4ccccc34)c2)N1", "<", 4.30],
  ["Cc1ccc(-c2cc(/N=C3/NC(=O)CS3)cs2)cc1", "<", 4.30],
  ["O=C1N/C(=N/c2csc(-c3ccc(Cl)cc3)c2)S/C1=C\\c1ccc2ccccc2c1", "=", 5.52],
  ["COc1ccc(/C=C2\\S/C(=N\\c3nc(-c4ccc(Cl)cc4)cs3)NC2=O)cc1", "=", 6.40],
  ["CN(C)c1ccc(/C=C2\\S/C(=N\\c3csc(-c4ccc(Cl)cc4)c3)NC2=O)cc1", "=", 6.30],
  ["O=C1N/C(=N/c2nc(-c3ccc(Cl)cc3)cs2)S/C1=C\\c1ccc2ccccc2c1", "=", 5.92],
  ["COc1ccc(/C=C2\\S/C(=N\\c3csc(-c4ccc(Cl)cc4)c3)NC2=O)cc1OC", "=", 5.77],
  ["COc1cccc(N2C(=O)CS/C2=N\\c2csc(-c3ccc(C)cc3)c2)c1", "=", 4.39],
  ["Cc1ccc(/C=C2\\S/C(=N\\c3nc(-c4ccc(Cl)cc4)cs3)NC2=O)cc1", "=", 6.30],
  ["COc1cccc(N2C(=O)CS/C2=N\\c2csc(-c3ccc(Cl)cc3)c2)c1", "<", 4.30],
  ["O=C1N/C(=N/c2csc(-c3ccc(Cl)cc3)c2)S/C1=C\\c1ccc(Cl)cc1", "=", 4.94],
  ["O=C1CS/C(=N\\c2csc(-c3ccc(Cl)cc3)c2)N1", "<", 4.30],
  ["COc1ccc(N2C(=O)CS/C2=N\\c2csc(-c3ccc(Cl)cc3)c2)cc1OC", "=", 4.30]
]}

###

Tested on: HT-29
protocol.description: Cytotoxicity against human HT-29 cells after 72 hrs by MTT assay
Assay type: functional, cell-based
cond: HT-29, 72 h
# IC50 annotations

{"columns": ["mol.smiles", "unit.descriptor", "op", "IC50"],
 "data": [
  ["O=C1N/C(=N/c2csc(-c3ccc(Cl)cc3)c2)S/C1=C\\c1ccccn1", "µM", "=", 11.5],
  ["O=C1CS/C(=N\\c2csc(-c3ccccc3)c2)N1", "µM", ">", 50],
  ["O=C1N/C(=N/c2csc(-c3ccc(Cl)cc3)c2)S/C1=C\\c1ccc(Br)cc1", "µM", "=", 2],
  ["CC(C)(C)c1cc(/N=C2/NC(=O)CS2)cs1", "µM", ">", 50],
  ["O=C1N/C(=N/c2csc(-c3ccc(Cl)cc3)c2)S/C1=C\\c1ccc(O)cc1", "µM", ">", 50],
  ["O=C1N/C(=N/c2csc(-c3ccc(Cl)cc3)c2)S/C1=C\\c1ccccc1", "µM", "=", 10.5],
  ["O=C1CS/C(=N\\c2csc(-c3ccc(Cl)cc3)c2)N1c1cccc2ccccc12", "µM", ">", 50],
  ["O=C1N/C(=N/c2csc(-c3ccc(Cl)cc3)c2)S/C1=C\\c1ccc2ccccc2c1", "µM", "=", 3.7],
  ["CN(C)c1ccc(/C=C2\\S/C(=N\\c3csc(-c4ccc(Cl)cc4)c3)NC2=O)cc1", "µM", "=", 1.5],
  ["COc1ccc(-c2cc(/N=C3/NC(=O)CS3)cs2)cc1", "µM", ">", 50]
]}

###

Tested on: HT-29
protocol.description: Cytotoxicity against human HT-29 cells after 72 hrs by MTT assay
Format: functional, cell-based
cond: HT-29, 72 h
# IC50 annotations
measured.quantity: IC50 (µM)

{"columns": ["mol.smiles", "subject.of.test", "op", "recorded.measurement"],
 "data": [
  ["O=C1N/C(=N/c2csc(-c3ccc(Cl)cc3)c2)S/C1=C\\c1ccc(Cl)cc1", "HT-29", "=", 2.8],
  ["Cc1ccc(/C=C2\\S/C(=N\\c3nc(-c4ccc(Cl)cc4)cs3)NC2=O)cc1", "HT-29", "=", 0.5],
  ["O=C1CS/C(=N\\c2c[se]c(-c3ccc(Cl)cc3)c2)N1", "HT-29", ">", 50],
  ["COc1cccc(N2C(=O)CS/C2=N\\c2csc(-c3ccc(Cl)cc3)c2)c1", "HT-29", "=", 24.6],
  ["COc1cccc(N2C(=O)CS/C2=N\\c2csc(-c3ccc(C)cc3)c2)c1", "HT-29", ">", 50],
  ["CN(C)c1ccc(/C=C2\\S/C(=N\\c3nc(-c4ccc(Cl)cc4)cs3)NC2=O)cc1", "HT-29", "=", 0.5],
  ["O=C1N/C(=N/c2csc(-c3ccc(Cl)cc3)c2)S/C1=C\\c1ccc(F)cc1", "HT-29", "=", 4.1],
  ["Cc1ccc(N2C(=O)CS/C2=N\\c2csc(-c3ccc(Cl)cc3)c2)cc1", "HT-29", "=", 28.9],
  ["COc1cccc(N2C(=O)CS/C2=N\\c2csc(-c3ccccc3)c2)c1", "HT-29", "=", 38.3],
  ["CN(C)c1ccc(N2C(=O)CS/C2=N\\c2csc(-c3ccc(Cl)cc3)c2)cc1", "HT-29", "=", 29.2],
  ["Cc1ccc(/C=C2\\S/C(=N\\c3csc(-c4ccc(Cl)cc4)c3)NC2=O)cc1", "HT-29", "=", 6.4],
  ["O=C1CS/C(=N\\c2csc(-c3ccc(Cl)cc3)c2)N1", "HT-29", "=", 17.1],
  ["O=C1CS/C(=N\\c2csc(-c3cccc4ccccc34)c2)N1", "HT-29", ">", 50],
  ["COc1ccc(/C=C2\\S/C(=N\\c3nc(-c4ccc(Cl)cc4)cs3)NC2=O)cc1", "HT-29", "=", 0.4],
  ["O=C1CS/C(=N\\c2csc(-c3ccc(Cl)cc3)c2)N1c1ccc(Cl)cc1", "HT-29", "=", 36.6],
  ["COc1cccc(N2C(=O)CS/C2=N\\c2csc(-c3cccc4ccccc34)c2)c1", "HT-29", ">", 50],
  ["COc1ccc(-c2cc(/N=C3\\SCC(=O)N3c3cccc(OC)c3)cs2)cc1", "HT-29", "=", 11.7],
  ["O=C1N/C(=N/c2nc(-c3ccc(Cl)cc3)cs2)S/C1=C\\c1ccc2ccccc2c1", "HT-29", "=", 1.8],
  ["Cc1ccc(-c2cc(/N=C3/NC(=O)CS3)cs2)cc1", "HT-29", ">", 50],
  ["COc1ccc(/C=C2\\S/C(=N\\c3csc(-c4ccc(Cl)cc4)c3)NC2=O)cc1", "HT-29", "=", 3.8],
  ["O=C1CS/C(=N\\c2nc(-c3ccc(Cl)cc3)cs2)N1", "HT-29", "=", 8.9]
]}
